A collection of compounds and their measured IC50
Target: human plasma kallikrein (Homo sapiens (Human))
Sequence (P03952 391-638): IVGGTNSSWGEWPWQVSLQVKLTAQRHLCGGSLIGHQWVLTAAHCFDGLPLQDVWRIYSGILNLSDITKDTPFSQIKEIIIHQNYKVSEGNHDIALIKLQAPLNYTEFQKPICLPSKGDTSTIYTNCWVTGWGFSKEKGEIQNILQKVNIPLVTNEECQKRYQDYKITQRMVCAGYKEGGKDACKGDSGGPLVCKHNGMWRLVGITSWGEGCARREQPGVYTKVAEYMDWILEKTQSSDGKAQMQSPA
Sequence (P03952 20-390 partner): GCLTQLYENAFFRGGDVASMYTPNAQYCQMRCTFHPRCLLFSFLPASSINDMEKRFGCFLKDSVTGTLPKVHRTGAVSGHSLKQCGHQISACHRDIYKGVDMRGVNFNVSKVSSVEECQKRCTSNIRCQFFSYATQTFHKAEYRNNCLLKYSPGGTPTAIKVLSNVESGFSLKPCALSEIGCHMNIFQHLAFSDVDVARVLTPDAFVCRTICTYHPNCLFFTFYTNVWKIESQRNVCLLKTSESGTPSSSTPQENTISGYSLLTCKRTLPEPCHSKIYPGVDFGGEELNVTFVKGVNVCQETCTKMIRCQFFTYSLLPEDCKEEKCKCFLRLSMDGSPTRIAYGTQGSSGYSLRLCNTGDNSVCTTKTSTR
Experiment: In vitro enzyme inhibition of human plasma kallikrein (PFR-AMC cleavage)
Conditions: Pro-Phe-Arg-AMC substrate, 37° C., read-out: hPK IC50

* Cc1cc(N)nc(C)c1CNC(=O)c1ccnc(Cc2ccc3ncc(C(F)(F)F)cc3c2)c1 [Example 228] | < 0.1 µM
* Cc1nc(N)ccc1CNC(=O)c1cc(Cc2cnc3ncc(Cl)cc3c2)ncc1C#N [Example 216] | 0.1 to 1 µM
* O=C(NCc1cnc2[nH]cc(Cl)c2c1)c1ccnc(Cc2ccc3ncc(N4CCCC4)cc3c2)c1 [Example 310] | 0.1 to 1 µM
* O=C(NCc1cnc2[nH]cc(Cl)c2c1)c1ccnc(Cc2ccc3ncc(N4CCCCC4)cc3c2)c1 [Example 306] | 1 to 10 µM
* Cc1cnc2c(C(C)(C)O)cc(Cc3cc(C(=O)NCc4ccc5c(N)nccc5c4)ccn3)cc2c1 [Example 319] | < 0.1 µM

Input line: Item under review: Cc1cc(N)nc(C)c1CNC(=O)c1ccnc(Cc2cc(S(N)(=O)=O)c3ncc(Cl)cc3c2)c1 [Example 235] . Reported IC50?
Output line: < 0.1 µM

Input line: Cc1nc(N)ccc1CNC(=O)c1ccnc(Cc2cnc3cc(F)c(Cl)cc3c2)c1 [Example 227] ?
Output line: < 0.1 µM

Input line: Cc1nc(N)ccc1CNC(=O)c1ccnc(Cc2ccc3ncc(CO)cc3c2)c1 [Example 258] ?
Output line: 0.1 to 1 µM
